Can you tell me inhibition for the items I'm about to list?
Biological target: MAP kinase-interacting serine/threonine-protein kinase 2 (Homo sapiens)
Sequence (Q9HBH9 whole entry, looked up): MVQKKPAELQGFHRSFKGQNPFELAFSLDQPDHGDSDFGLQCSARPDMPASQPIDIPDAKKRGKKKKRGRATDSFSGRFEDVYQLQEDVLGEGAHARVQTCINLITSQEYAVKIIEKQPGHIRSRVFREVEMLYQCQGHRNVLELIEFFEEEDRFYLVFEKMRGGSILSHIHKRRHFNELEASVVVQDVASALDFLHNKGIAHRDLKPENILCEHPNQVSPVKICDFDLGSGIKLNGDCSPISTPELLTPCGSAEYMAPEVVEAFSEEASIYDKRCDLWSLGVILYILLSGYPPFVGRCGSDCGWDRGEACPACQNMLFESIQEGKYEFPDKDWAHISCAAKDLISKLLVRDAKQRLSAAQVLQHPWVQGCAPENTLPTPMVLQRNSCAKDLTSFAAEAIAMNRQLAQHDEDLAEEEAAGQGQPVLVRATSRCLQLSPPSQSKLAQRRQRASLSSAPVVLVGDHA
Settings: Sf21, dose 500.0 nM, time 50.0 min
Unit % implied. Number only.

Request: Form field - read-out: inhibition; system: MAP kinase-interacting serine/threonine-protein kinase 2 (Homo sapiens); submitted item: `O=C(c1ccc(-c2ccc3ncc(-c4ccc5cnccc5c4)n3c2)cc1)N1CCC(N2CCOCC2)CC1`
Response: 77.7

Request: Form field - read-out: inhibition; system: MAP kinase-interacting serine/threonine-protein kinase 2 (Homo sapiens); submitted item: `O=C(c1ccc(-c2ccc3ncc(-c4ccc5cnccc5c4)n3c2)cc1)N1CCNCC1`
Response: 77.7

Request: Form field - read-out: inhibition; system: MAP kinase-interacting serine/threonine-protein kinase 2 (Homo sapiens); submitted item: `N[C@H]1CCCN(C(=O)c2ccc(-c3ccc4ncc(-c5ccc6cnccc6c5)n4n3)cc2)C1`
Response: 97.3

Request: Form field - read-out: inhibition; system: MAP kinase-interacting serine/threonine-protein kinase 2 (Homo sapiens); submitted item: `O=C(c1ccc(-c2ccc3ncc(-c4ccc5ncccc5c4)n3c2)cc1)N1CCC(N2CCCCC2)CC1`
Response: 2.41
